- targetDesc: full length human PPAR-δ (Homo sapiens)
- Construct: host or cells: Chinese hamster ovary (CHO) cell lines
- Sequence (Q03181 whole entry): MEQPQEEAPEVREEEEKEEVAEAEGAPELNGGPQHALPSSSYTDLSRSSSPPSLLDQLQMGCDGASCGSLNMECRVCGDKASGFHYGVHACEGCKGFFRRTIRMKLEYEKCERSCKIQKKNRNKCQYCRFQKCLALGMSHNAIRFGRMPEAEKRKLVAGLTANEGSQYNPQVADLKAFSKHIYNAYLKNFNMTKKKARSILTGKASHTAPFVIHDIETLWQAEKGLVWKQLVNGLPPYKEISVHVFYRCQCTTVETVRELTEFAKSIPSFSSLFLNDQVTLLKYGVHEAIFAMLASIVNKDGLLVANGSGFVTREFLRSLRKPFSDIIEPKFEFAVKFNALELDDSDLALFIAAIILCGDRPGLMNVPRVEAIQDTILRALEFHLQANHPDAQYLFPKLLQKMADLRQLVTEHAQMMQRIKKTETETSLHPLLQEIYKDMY
- assayInfo: PathHunter NHR Protein Interaction assay, PPAR-δ agonist activity (CHO cells)
- Format: cell-based
- recordedConditions: PPAR-delta; free fatty acid form (Table 4); read-out: EC50
quantityMeasured: EC50 (µM)
State the answer as a number, implicitly in µM.

Value wanted: EC50 (full length human PPAR-δ (Homo sapiens)) of entry CCCCCCCCCCCCCCCCC(=O)O 17.4

* * *

- targetDesc: full length human PPAR-γ (Homo sapiens)
- Construct: host or cells: Chinese hamster ovary (CHO) cell lines
- Sequence (P37231 whole entry): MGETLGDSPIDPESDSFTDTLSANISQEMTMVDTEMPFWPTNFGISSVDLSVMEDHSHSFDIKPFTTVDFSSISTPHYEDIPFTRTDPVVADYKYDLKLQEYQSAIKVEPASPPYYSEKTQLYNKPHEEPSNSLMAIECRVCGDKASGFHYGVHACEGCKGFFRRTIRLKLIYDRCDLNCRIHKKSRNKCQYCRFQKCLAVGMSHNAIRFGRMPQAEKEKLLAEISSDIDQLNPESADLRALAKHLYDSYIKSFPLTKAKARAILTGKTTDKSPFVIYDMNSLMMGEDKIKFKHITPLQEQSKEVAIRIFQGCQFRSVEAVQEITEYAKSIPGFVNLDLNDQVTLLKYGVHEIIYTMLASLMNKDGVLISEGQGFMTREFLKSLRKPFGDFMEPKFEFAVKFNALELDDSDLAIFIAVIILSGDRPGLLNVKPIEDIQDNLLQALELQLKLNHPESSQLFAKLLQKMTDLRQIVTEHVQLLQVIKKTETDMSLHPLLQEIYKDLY
- assayInfo: PathHunter NHR Protein Interaction assay, PPAR-γ agonist activity (CHO cells)
- Type: cell-based
- recordedConditions: Table 5; read-out: Cell-Based PPAR Agonist Activity Half Maximal Effective Concentration (EC50) PPAR-γ
quantityMeasured: EC50

Value wanted: EC50 (full length human PPAR-γ (Homo sapiens)) of entry CCCCCCCCCCCCCCc1nnn[nH]1 [1-tetrazole-C15:0] > 100 µM
